Cited source for all entries: ChEMBL document CHEMBL5329219

- Test system: HepG2
- protocol description: Cytotoxicity against human HepG2 cells incubated for 24 hrs by resorufin based fluorescence assay
- Format: toxicity, cell-based
- assay setup: hepg2, 24 h
property name: Activity

Would you please look over these solved cases?
# compound, recorded result
data = [
    ("Cl.O=C(NC(C1CCCCN1)P(=O)(O)O)c1cccs1 (configuration not stated)", "Non-Toxic"),
    ("Cl.O=C(Cc1csc2ccccc12)NC(C1CCCCN1)P(=O)(O)O (configuration not stated)", "Non-Toxic"),
    ("Cl.O=C(Cc1cccs1)NC(C1CCCCN1)P(=O)(O)O (configuration not stated)", "Non-Toxic"),
    ("Cl.O=C(NC(C1CCCCN1)P(=O)(O)O)c1cc2ccccc2s1 (configuration not stated)", "Non-Toxic"),
    ("Cl.O=C(NC(C1CCCCN1)P(=O)(O)O)c1csc2ccccc12 (stereo in doubt; form 1)", "Non-Toxic"),
    ("Cl.O=C(NC(C1CCCCN1)P(=O)(O)O)c1scc2c1CCCC2 (stereo in doubt; form 1)", "Non-Toxic"),
    ("Cl.O=C(Cc1cc2ccccc2s1)NC(C1CCCCN1)P(=O)(O)O (configuration not stated)", "Non-Toxic"),
    ("Cl.O=C(NC(C1CCCCN1)P(=O)(O)O)c1cc2c(s1)CCCC2 (stereo in doubt; form 1)", "Non-Toxic"),
]

# input GET /values?readout=Activity&system=HepG2&item= Cl.O=C(Cc1ccsc1)NC(C1CCCCN1)P(=O)(O)O (configuration not stated)
# output Non-Toxic

# input Return Activity measured with HepG2 given this compound: Cl.O=C(NC(C1CCCCN1)P(=O)(O)O)c1ccsc1 (configuration not stated)
# output Non-Toxic

# input // lookup Activity | system=HepG2 | key= Cc1[nH]c(=S)sc1CC(=O)NC(C1CCCCN1)P(=O)(O)O.Cl (stereo in doubt; form 1)
# output Non-Toxic

# input Item: Cl.O=C(NC(C1CCCCN1)P(=O)(O)O)c1csc2c1CCCC2 (configuration not stated) Test system: HepG2 Read-out: Activity Value: ?
# output Non-Toxic
